Assay: Intrinsic clearance in human liver microsomes assessed as glucuronidation in absence of NADPH and presence of microsomal activator Brij58 and UDPGA
RECORDED_ENDPOINT: microsomal CLint (µL/min/mg)
Give the value in µL/min/mg but do not write µL/min/mg after it.

Example results:
{"MOLECULAR_STRING": "CS(=O)(=O)Nc1cc([C@@H](O)CNCCCCCCCCCN2CCC(OC(=O)Nc3ccccc3-c3ccccc3)CC2)ccc1O", "UNITS": "µL/min/mg", "NUMERIC_READOUT": 40}
{"MOLECULAR_STRING": "CS(=O)(=O)Nc1cc([C@@H](O)CNCCCCCCCCCN2C[C@H]3C[C@@]3(COC(=O)Nc3ccccc3-c3ccc(O)c(Cl)c3)C2)ccc1O", "UNITS": "µL/min/mg", "NUMERIC_READOUT": 49}
{"MOLECULAR_STRING": "CS(=O)(=O)Nc1cc([C@@H](O)CNCCCCCCCCCN2CCC(OC(=O)Nc3ccc(F)cc3-c3ccc(O)c(Cl)c3)CC2)ccc1O", "UNITS": "µL/min/mg", "NUMERIC_READOUT": 25}

Turning now to a further molecule:
Ask: Answer with reported microsomal CLint of CS(=O)(=O)Nc1cc([C@@H](O)CNCCCCCCCCCN2CCC(OC(=O)Nc3ccccc3-c3ccc(O)cc3)CC2)ccc1O
Result: 20

Reference source for all entries: ChEMBL document CHEMBL3217601
